The measurements presented in this section are drawn from patent US9776991B2.

target: recombinant sEH (soluble epoxide hydrolase, EPHX2) (Homo sapiens (Human)); assay: biochemical fluorometric sEH inhibition assay with Phome substrate; details: recombinant sEH purified from Sf9 insect cells, 2 nM sEH, 5 μM Phome, 60 minutes at 30° C.
Measure: IC50 (nM)

CC(C)[C@@H](O)C(=O)N1CCN(Cc2ccc(C(=O)NCc3ccccc3OC(F)(F)F)s2)CC1 [Example 101]    2.28
COc1cc(CNC(=O)c2ccc(CN3CCN(C(=O)C4CC(=O)OC4(C)C)CC3)s2)ccn1 (centres unmarked) [Example 40]    2.75
CNC(=O)c1cccnc1N1CCN(Cc2ccc(C(=O)NCc3ccc(OC)cc3OC(F)(F)F)s2)CC1 [Example 74]    2.66
O=C(NCc1ccccc1OC(F)(F)F)c1ccc(CN2CCN(c3nncs3)CC2)s1 [Example 142]    1.82
COc1ccc(CNC(=O)c2ccc(CN3CCN(C(=O)c4c(C)cc(=O)oc4C)CC3)s2)c(C(F)(F)F)c1 [Example 9]    3.06
Cc1cccc(C(=O)N2CCN(Cc3ccc(C(=O)NCc4ccccc4OC(F)(F)F)s3)CC2)n1 [Example 72]    2.59
COCCOCC(=O)N1CCN(Cc2ccc(C(=O)NCc3ccccc3OC(F)(F)F)s2)CC1 [Example 83]    2.37
O=C(NCc1ccccc1C(F)(F)F)c1ccc(CN2CCN(C(=O)Cc3cccc(C(F)(F)F)c3)CC2)s1 [Example 31]    0.758

###

target: recombinant sEH (soluble epoxide hydrolase, EPHX2) (Homo sapiens (Human), UniProt P34913); assay: biochemical fluorometric sEH inhibition assay with Phome substrate; settings: recombinant sEH purified from Sf9 insect cells, 2 nM sEH, 5 μM Phome, 60 minutes at 30° C.
Sequence (P34913 whole entry): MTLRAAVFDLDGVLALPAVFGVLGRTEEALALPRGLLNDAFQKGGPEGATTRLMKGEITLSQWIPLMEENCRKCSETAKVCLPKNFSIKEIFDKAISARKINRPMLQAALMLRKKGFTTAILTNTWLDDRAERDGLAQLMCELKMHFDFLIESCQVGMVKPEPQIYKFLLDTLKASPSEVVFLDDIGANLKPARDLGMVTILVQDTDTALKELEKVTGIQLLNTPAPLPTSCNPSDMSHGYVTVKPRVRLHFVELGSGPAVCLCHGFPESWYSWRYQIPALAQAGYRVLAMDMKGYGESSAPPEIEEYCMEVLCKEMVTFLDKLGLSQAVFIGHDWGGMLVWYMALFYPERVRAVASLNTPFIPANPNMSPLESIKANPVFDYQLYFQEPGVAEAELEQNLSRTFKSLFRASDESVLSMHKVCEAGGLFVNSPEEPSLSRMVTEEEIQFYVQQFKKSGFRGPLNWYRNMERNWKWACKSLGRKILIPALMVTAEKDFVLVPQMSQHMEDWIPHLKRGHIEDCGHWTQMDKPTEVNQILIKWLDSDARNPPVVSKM
pIC50: −log10 of the molar value.
Measure: pIC50

Field: example entries. Status: answers known.
CCC(C)(O)C(=O)N1CCN(Cc2ncc(C(=O)NCc3ccc(Cl)cc3Cl)s2)CC1 (stereo not drawn)    7.91
O=C(NCc1ccc(Cl)cc1Cl)c1cnc(CN2CCN(C(=O)C3CCO3)CC2)s1 (stereo not drawn)    8.01
O=C(NCc1ccc(Cl)cc1Cl)c1ccc(CN2CCN3C(=O)CCC3C2)s1 (stereo not drawn)    8.78
COc1ccc(CNC(=O)c2ccc(CN3CCN(C)C(=O)C3)s2)c(OC(F)(F)F)c1    8.67
CN1CC(C(=O)N2CCN(Cc3ccc(C(=O)NCc4ccccc4OC(F)(F)F)s3)CC2)CC1=O (stereo not drawn)    8.57

[1] O=C(NCc1ccccc1C(F)(F)F)c1ccc(CN2CCN(C(=O)c3c(Cl)cccc3Cl)CC2)s1
[2] CC(C(=O)N1CCN(Cc2ncc(C(=O)NCc3ccc(Cl)cc3Cl)s2)CC1)N(C)C (stereo not drawn)
[3] CC(C)(CO)C(=O)N1CCN(Cc2ncc(C(=O)NCc3ccc(Cl)cc3Cl)s2)CC1
# input Kindly order the items shown according to pIC50, from the highest value down. Enter labels, ranked according to the request.
# output 1, 3, 2
